Dear all, this message contains IC50 results, target or system Histone deacetylase 1 (Homo sapiens).
Numbers only, in nM.

{"columns": ["mol", "IC50 / nM"],
 "data": [
  ["COc1ccc(C(=O)Nc2cc(-c3cccs3)ccc2N)cc1", 50],
  ["COc1ccc(NCc2ccc(C(=O)Nc3cc(-c4cccs4)ccc3N)cc2)cc1OC", 50],
  ["COc1ccc(NCc2ccc(C(=O)Nc3cc(-c4ccoc4)ccc3N)cc2)cc1OC", 50],
  ["Nc1ccc(-c2cccs2)cc1NC(=O)c1ccc2nccnc2c1", 60]
]}

Here is the next item to consider.
What value of IC50 on Histone deacetylase 1 (Homo sapiens) does `COc1ccc(NCc2ccc(C(=O)Nc3cc(-c4cccs4)ccc3O)cc2)cc1OC` have?
40

* * *

- target: Histone deacetylase 2 (Homo sapiens)
- Sequence (Q92769 whole entry): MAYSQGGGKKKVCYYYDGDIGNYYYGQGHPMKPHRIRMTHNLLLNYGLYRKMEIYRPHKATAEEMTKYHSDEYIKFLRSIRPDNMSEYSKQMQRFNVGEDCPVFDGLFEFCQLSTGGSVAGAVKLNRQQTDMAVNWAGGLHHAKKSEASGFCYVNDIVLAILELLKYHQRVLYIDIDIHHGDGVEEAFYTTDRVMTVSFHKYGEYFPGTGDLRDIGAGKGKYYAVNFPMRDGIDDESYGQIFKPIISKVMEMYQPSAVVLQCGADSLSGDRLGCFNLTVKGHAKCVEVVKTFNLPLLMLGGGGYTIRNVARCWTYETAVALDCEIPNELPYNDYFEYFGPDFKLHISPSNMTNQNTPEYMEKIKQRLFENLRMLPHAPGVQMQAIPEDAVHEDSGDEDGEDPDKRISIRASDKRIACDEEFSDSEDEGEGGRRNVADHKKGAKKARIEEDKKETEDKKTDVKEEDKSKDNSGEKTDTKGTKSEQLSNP
quantity_kind: IC50 (nM)
One number for each entry, in nM.

Example entries and their recorded answers appear below.
{"columns": ["mol", "units_label", "IC50"],
 "data": [
  ["Nc1ccc(-c2cccs2)cc1NC(=O)c1ccc(CNC(=O)OCc2cccnc2)cc1", "nM", 100],
  ["COc1ccc(NCc2ccc(C(=O)Nc3cc(-c4ccsc4)ccc3N)cc2)cc1OC", "nM", 60],
  ["COc1ccc(C(=O)Nc2cc(-c3cccs3)ccc2N)cc1", "nM", 200]
]}

Which measured IC50 value corresponds to `COc1ccc(NCc2ccc(C(=O)Nc3cc(-c4cccs4)ccc3O)cc2)cc1OC` ?
60

* * *

Dear all, this message contains pIC50 results, target or system Histone deacetylase 2 (Homo sapiens).
Answers are plain numbers, as −log10 of the molar value.

Example entries and their recorded answers appear below.
{"columns": ["mol", "pIC50"],
 "data": [
  ["Nc1ccc(-c2cccs2)cc1NC(=O)c1ccc2nccnc2c1", 6.70],
  ["COc1ccc(NCc2ccc(C(=O)Nc3ccccc3N)cc2)cc1OC", 6.30],
  ["COc1ccc(NCc2ccc(C(=O)Nc3cc(-c4ccoc4)ccc3N)cc2)cc1OC", 7.15]
]}

Here is the next item to consider.
Which measured pIC50 value corresponds to `COc1ccc(NCc2ccc(C(=O)Nc3cc(-c4ccccc4)ccc3N)cc2)cc1OC` ?
7.00

* * *

Please go through the items and note down their IC50.
- target: Histone deacetylase
- protocol_text: Inhibition of HDAC in 293T cells
- Format: cell-based, Homo sapiens
Numbers only, in µM.

Example entries and their recorded answers appear below.
{"columns": ["mol", "IC50 (µM)"],
 "data": [
  ["COc1ccc(C(=O)Nc2ccccc2N)cc1", 3],
  ["COc1ccc(C(=O)Nc2cc(-c3cccs3)ccc2N)cc1", 0.15],
  ["Nc1ccccc1NC(=O)c1ccc2nccnc2c1", 3]
]}

Here is the next item to consider.
Which measured IC50 value corresponds to `Nc1ccc(-c2cccs2)cc1NC(=O)c1ccc2nccnc2c1` ?
0.9

* * *

- target: Histone deacetylase 3 (Homo sapiens)
- Sequence (O15379 whole entry): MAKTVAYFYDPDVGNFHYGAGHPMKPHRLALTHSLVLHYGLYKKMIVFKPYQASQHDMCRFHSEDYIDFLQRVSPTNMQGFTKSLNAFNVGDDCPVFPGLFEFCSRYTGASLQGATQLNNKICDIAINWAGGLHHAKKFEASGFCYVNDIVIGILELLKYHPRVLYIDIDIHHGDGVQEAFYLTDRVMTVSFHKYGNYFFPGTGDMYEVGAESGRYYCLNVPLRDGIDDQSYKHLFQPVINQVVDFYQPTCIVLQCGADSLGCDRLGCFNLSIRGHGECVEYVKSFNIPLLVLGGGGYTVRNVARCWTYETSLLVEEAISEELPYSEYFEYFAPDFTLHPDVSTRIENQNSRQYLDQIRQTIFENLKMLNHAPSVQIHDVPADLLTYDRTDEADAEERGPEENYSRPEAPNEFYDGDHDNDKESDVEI
- protocol_text: Inhibition of human recombinant HDAC3
pIC50: −log10 of the molar value.
Please go through the items and note down their pIC50.

Example entries and their recorded answers appear below.
{"columns": ["mol", "quantity_kind", "reported_value"],
 "data": [
  ["Nc1ccc(-c2cccs2)cc1NC(=O)c1ccc2nccnc2c1", "pIC50", "< 4.70"],
  ["Nc1ccccc1NC(=O)c1ccc2nccnc2c1", "pIC50", "< 4.70"],
  ["COc1ccc(C(=O)Nc2cc(-c3cccs3)ccc2N)cc1", "pIC50", "< 4.70"]
]}

Here is the next item to consider.
Which measured pIC50 value corresponds to `COc1ccc(C(=O)Nc2ccccc2N)cc1` ?
5.85
